- System: neuropathic pain (mechanical allodynia) in rats with caudal nerve damage
- experiment_description: Pain relief test using animal model (caudal nerve damage neuropathic pain, mechanical allodynia)
- Format: in vivo
- conditions: ip; at 1 hour after intraperitoneal administration; rat, von Frey; reference concentration 30 mg/kg; read-out: Pain test results (% MPE, 50% tail withdrawal threshold)
measurement_type: inhibition in vivo (%)
Numbers only; they are read as %.

Query for neuropathic pain (mechanical allodynia) in rats with caudal nerve damage: what inhibition in vivo does the record show for O=C(NCc1ccc(Cl)nc1)OC1CCC(COC(=O)N2CCCC2)CC1 (stereo not drawn) ?
5.8

Query for neuropathic pain (mechanical allodynia) in rats with caudal nerve damage: what inhibition in vivo does the record show for O=C(NCc1cccnc1Cl)OC1CCC(COC(=O)N2CCCC2)CC1 (stereo not drawn) ?
22.5

Query for neuropathic pain (mechanical allodynia) in rats with caudal nerve damage: what inhibition in vivo does the record show for O=C(Nc1ccccn1)OC1CCC(COC(=O)N2CCCC2)CC1 (stereo not drawn) ?
35.2

Query for neuropathic pain (mechanical allodynia) in rats with caudal nerve damage: what inhibition in vivo does the record show for Cc1cccc(CNC(=O)OC2CCC(COC(=O)N3CCCC3)CC2)n1 (stereo not drawn) ?
29.2

Query for neuropathic pain (mechanical allodynia) in rats with caudal nerve damage: what inhibition in vivo does the record show for O=C(NCc1ccncc1)OC1CCC(CNC(=O)N2CCCC2)CC1 (stereo not drawn) ?
10.5

Query for neuropathic pain (mechanical allodynia) in rats with caudal nerve damage: what inhibition in vivo does the record show for O=C(NCc1cccnc1)OC1CCC(COC(=O)N2CCCC2)CC1 (stereo not drawn) ?
11
